Tested on: Candida albicans
Test: Antifungal activity against fluconazole-resistant Candida albicans ATCC 64550 after overnight incubation by CLSI broth microdilution method
Type: functional
observable: MIC (µM)
Dear colleague, please return just the value in µM, with no unit written.

Q: For the molecule Clc1ccc(COC(Cn2ccnc2)c2ccc(Cl)cc2Cl)c(Cl)c1 (stereo not given) , what MIC is on record?
Result: 12.5

Q: For the molecule "CC(C)C[C@H](NC(=O)[C@H](CCCCN)NC(=O)[C@H](CC(C)C)NC(=O)[C@H](CCCCN)NC(=O)[C@H](CC(C)C)NC(=O)[C@H](CCCCN)NC(=O)[C@@H](N)CC(C)C)C(=O)N[C@@H](CCCCN)C(N)=O" , what MIC is on record?
Result: 3.13

----------
Test system: Candida albicans
Test: Antifungal activity against fluconazole-resistant Candida albicans ATCC 64550 after overnight incubation by CLSI broth microdilution method
Assay type: functional
Square brackets hold non-standard residues; d marks the D form. Peptide text beside a SMILES is read from it. Lys(Me2) = CN(C)CCCC[C@H](N)C(=O)O; Dap = NC[C@H](N)C(=O)O
observable: MIC

Q: Observed MIC on Candida albicans for CC[C@H](C)[C@H](N)C(=O)N[C@@H](CN)C(=O)N[C@H](C(=O)N[C@@H](CN)C(=O)N[C@H](C(=O)N[C@@H](CN)C(=O)N[C@H](C(=O)N[C@@H](CN)C(=O)N[C@H](C(N)=O)[C@@H](C)CC)[C@@H](C)CC)[C@@H](C)CC)[C@@H](C)CC (H-I[Dap]I[Dap]I[Dap]I[Dap]I-NH2) , please.
Result: 25 µM

Q: Observed MIC on Candida albicans for CC[C@H](C)[C@H](N)C(=O)N[C@@H](CCCN)C(=O)N[C@H](C(=O)N[C@@H](CCCN)C(=O)N[C@H](C(=O)N[C@@H](CCCN)C(=O)N[C@H](C(=O)N[C@@H](CCCN)C(=O)N[C@H](C(N)=O)[C@@H](C)CC)[C@@H](C)CC)[C@@H](C)CC)[C@@H](C)CC (HELM PEPTIDE1{I.[Orn].I.[Orn].I.[Orn].I.[Orn].I.[am]}$$$$V2.0) , please.
Result: 6.25 µM

Q: Observed MIC on Candida albicans for CC[C@H](C)[C@H](N)C(=O)N[C@@H](CCN)C(=O)N[C@H](C(=O)N[C@@H](CCN)C(=O)N[C@H](C(=O)N[C@@H](CCN)C(=O)N[C@H](C(=O)N[C@@H](CCN)C(=O)N[C@H](C(N)=O)[C@@H](C)CC)[C@@H](C)CC)[C@@H](C)CC)[C@@H](C)CC (HELM PEPTIDE1{I.[Dab].I.[Dab].I.[Dab].I.[Dab].I.[am]}$$$$V2.0) , please.
Result: 6.25 µM

Q: Observed MIC on Candida albicans for CC[C@H](C)[C@H](N)C(=O)N[C@@H](CCCCN(C)C)C(=O)N[C@H](C(=O)N[C@@H](CCCCN(C)C)C(=O)N[C@H](C(=O)N[C@@H](CCCCN(C)C)C(=O)N[C@H](C(=O)N[C@@H](CCCCN(C)C)C(N)=O)[C@@H](C)CC)[C@@H](C)CC)[C@@H](C)CC (H-I[Lys(Me2)]I[Lys(Me2)]I[Lys(Me2)]I[Lys(Me2)]-NH2) , please.
Result: 100 µM

Q: Observed MIC on Candida albicans for CC(C)C[C@H](N)C(=O)N[C@@H](CCCCN)C(N)=O (H-Leu-Lys-NH2) , please.
Result: > 100 µM

Q: Observed MIC on Candida albicans for "CC(C)C[C@@H](N)C(=O)N[C@H](CCCCN)C(=O)N[C@H](CC(C)C)C(=O)N[C@H](CCCCN)C(=O)N[C@H](CC(C)C)C(=O)N[C@H](CCCCN)C(=O)N[C@H](CC(C)C)C(=O)N[C@H](CCCCN)C(N)=O" , please.
Result: 3.13 µM

Q: Observed MIC on Candida albicans for NCCCC[C@H](NC(=O)[C@H](CC1CCCCC1)NC(=O)[C@H](CCCCN)NC(=O)[C@H](CC1CCCCC1)NC(=O)[C@H](CCCCN)NC(=O)[C@H](CC1CCCCC1)NC(=O)[C@H](CCCCN)NC(=O)[C@@H](N)CC1CCCCC1)C(N)=O (HELM PEPTIDE1{[Cha].K.[Cha].K.[Cha].K.[Cha].K.[am]}$$$$V2.0) , please.
Result: > 100 µM
